Readings of activation at 2 µM for the listed molecules
System: acutely dissociated and purified rat OPCs
Test: Acute OL differentiation assay (MBP expression/cell, immunofluorescent image quantification)
Type: cell-based
Conditions: Rattus norvegicus, test compound at 2 uM; MBP expression relative to quetiapine; NCC library screen, sheet "All OLga data"; read-out: 2 uM (% Quet)
MEASUREMENT TYPE: activation at 2 µM (%)

molecule=CN1CCN(C(=O)O[C@H]2c3nccnc3C(=O)N2c2ccc(Cl)cn2)CC1 unit_annotation=% endpoint_result=-2.9
molecule=NC(=O)c1ncn([C@@H]2O[C@H](CO)[C@@H](O)[C@H]2O)n1 unit_annotation=% endpoint_result=6.7
molecule=Brc1c(NC2=NCCN2)ccc2nccnc12 unit_annotation=% endpoint_result=21.9
molecule=Cc1ccc(Cl)c(Nc2ccccc2C(=O)O)c1Cl unit_annotation=% endpoint_result=14.1
molecule="NS(=O)(=O)c1cc2c(cc1Cl)NCNS2(=O)=O [Hydrochlorothiazide]" unit_annotation=% endpoint_result=-36
molecule=Cc1onc(-c2ccccc2)c1C(=O)N[C@@H]1C(=O)N2[C@@H]1SC(C)(C)[C@@H]2C(=O)O unit_annotation=% endpoint_result=-14.9
molecule="CCCC(C)(COC(N)=O)COC(=O)NC(C)C (stereo not drawn)" unit_annotation=% endpoint_result=-33
molecule="CC(=O)/N=c1/sc(S(N)(=O)=O)nn1C [Methazolamide]" unit_annotation=% endpoint_result=-29
molecule=Clc1ccc2nsnc2c1NC1=NCCN1 unit_annotation=% endpoint_result=13.7
